Read-out: Interleukin-1 alpha (IL1a), IL1A (gene 3552)
Experiment: BSK_BE3C_IL1a: BioMAP Diversity Plus: BE3C Assay for Interleukin-1 alpha (IL1a) Biomarker Activity (AID 2283016)
Conditions: primary human bronchial epithelial cells; actives raise or lower the signal
Calls of active or inactive are those of the source. The calls were made as follows: active = hit-call score of the fitted dose curve at least 0.9, where 1 is the maximum; inactive = score below 0.9.
# output must be one of TRUE = active, FALSE = inactive

Can you look up the reported call for `Cc1[nH]cnc1C[C@H]1CCc2c(C)c3ccccc3n2C1=O` for me?
FALSE

So what was the verdict on `CCN(C(=O)c1cc(C)cc(OC[C@H](C)Nc2ccncc2)c1)C(C)C` in this test?
FALSE

# outcome recorded in this test, key = `COc1cccc(-c2ccc(/C=C\CN3CCCCCC3)cc2Cl)c1`
TRUE

Could you check what this test reported for `O=P(OC(CCl)CCl)(OC(CCl)CCl)OC(CCl)CCl` ?
FALSE
